Collected TGI values appear next to each entry.
- Tested on: IGROV1 ovarian
- method_summary: NCI tumour cell line growth inhibition, 48 h

// worked examples, TGI included
INSERT INTO assay_data (compound, measurement_label, reported_result) VALUES
  ('N=C(N)SCCN1CCCCC1', 'TGI', '> 100 µM'),
  ('CCP(C)(C)=O', 'TGI', '> 100 µM'),
  ('CN1C(=O)C(C#N)C2C[C@@]1(C)Oc1ccccc12 (stereo partly specified)', 'TGI', '> 100 µM'),
  ('CN(C(=O)c1cc2c(s1)sc1c(=O)n(C)c3ccccc3c12)c1ccccc1', 'TGI', '> 100 µM'),
  ('COC(=O)/C=C1/OC(c2ccc(C)cc2C)=CC1=O', 'TGI', '22 µM'),
  ('NCCn1cnc2nc(NC(=O)c3ccccc3)[nH]c(=O)c21', 'TGI', '> 100 µM');

Reading of TGI for C/C=C/C=C/CCCCCCCCCCCCC[C@]1(OC)C=CC(CC(=O)OC)OO1 (stereo partly specified) with IGROV1 ovarian: 20 µM

Reading of TGI for COc1ccc(C2N3CCCCC3[C@@H]3c4[nH]c5ccccc5c4CCN23)c(OC)c1 (stereo partly specified) with IGROV1 ovarian: > 100 µM

Reading of TGI for Cc1[nH]c(=O)nc(N/N=C/c2ccc(Cl)cc2)c1C(=O)Nc1ccc(Cl)cc1 with IGROV1 ovarian: > 100 µM

Reading of TGI for CCOC(=O)CON=c1c2ccccc2ccc2ccccc12 with IGROV1 ovarian: > 100 µM

Reading of TGI for CCOC(=O)C1=C(C)N(NC(=O)OC)C2(N)N(NC(=O)OC)C(C)=C(C(=O)OCC)C12C#N (stereo unspecified) with IGROV1 ovarian: > 100 µM
